I'd appreciate it if you could supply T/C values for the items below.
Tested on: L1210 leukemia ip in BDF1 mice, survival T/C
Experiment: NCI In Vivo Anticancer Drug Screen. Data for tumor model L1210 Leukemia (intraperitoneal) in B6D2F1 (BDF1) mice
Conditions: endpoint: mean survival time; dose: 25.0 mg/kg/injection; schedule: Q04DX003 (ip); vehicle: Klucel (hydroxypropylcellulose) (HPC); higher = longer survival
Description: The antitumor activity of compounds was measured in mice bearing transplantable tumors. Survival or tumor size were measured and the results are expressed as the measurement made in the treated group (T) divided by the measurement made in the vehicle treated control group (C). The tumor model used in this assay is L1210 Leukemia (intraperitoneal) in B6D2F1 (BDF1) mice
Toxic doses and inconclusive results are not listed.

Field T/C (entry CCCCCCCCCCCCCCCCNC(=S)Nc1ccc(C(=O)O)cc1 ) reads 104 % of control

Field T/C (entry O=C(C[n+]1ccccc1)c1ccc(S(=O)(=O)c2ccccc2)cc1 ) reads 93 % of control

Field T/C (entry CC(C)(C)C1(C)CN(N=O)C(=O)O1 (stereo not drawn) ) reads 104 % of control

Field T/C (entry O=C1C(Br)=CC(=NBr)C=C1Br ) reads 101 % of control

Field T/C (entry Cc1ccc(NCS(=O)(=O)O)cc1 ) reads 106 % of control

Field T/C (entry CN(C)/N=C/c1ccc(N(C)C)cc1 ) reads 101 % of control

Field T/C (entry CCCCCCCCCCCCCCCCCC[n+]1cccc(C(=O)N2CCOCC2)c1 ) reads 96 % of control

Field T/C (entry c1ccc(-c2oc(-c3ccccc3)c3ccccc23)cc1 ) reads 96 % of control
